So I've got a bunch of compounds here, and I need their inhibition values.
target: Protein kinase C theta type (Homo sapiens) (UniProt Q04759); details: at 0.1 µM;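 note: reported figure is the mean percent inhibition of PKC-theta, from the GSK PKIS screen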
Sequence (Q04759 whole entry, looked up): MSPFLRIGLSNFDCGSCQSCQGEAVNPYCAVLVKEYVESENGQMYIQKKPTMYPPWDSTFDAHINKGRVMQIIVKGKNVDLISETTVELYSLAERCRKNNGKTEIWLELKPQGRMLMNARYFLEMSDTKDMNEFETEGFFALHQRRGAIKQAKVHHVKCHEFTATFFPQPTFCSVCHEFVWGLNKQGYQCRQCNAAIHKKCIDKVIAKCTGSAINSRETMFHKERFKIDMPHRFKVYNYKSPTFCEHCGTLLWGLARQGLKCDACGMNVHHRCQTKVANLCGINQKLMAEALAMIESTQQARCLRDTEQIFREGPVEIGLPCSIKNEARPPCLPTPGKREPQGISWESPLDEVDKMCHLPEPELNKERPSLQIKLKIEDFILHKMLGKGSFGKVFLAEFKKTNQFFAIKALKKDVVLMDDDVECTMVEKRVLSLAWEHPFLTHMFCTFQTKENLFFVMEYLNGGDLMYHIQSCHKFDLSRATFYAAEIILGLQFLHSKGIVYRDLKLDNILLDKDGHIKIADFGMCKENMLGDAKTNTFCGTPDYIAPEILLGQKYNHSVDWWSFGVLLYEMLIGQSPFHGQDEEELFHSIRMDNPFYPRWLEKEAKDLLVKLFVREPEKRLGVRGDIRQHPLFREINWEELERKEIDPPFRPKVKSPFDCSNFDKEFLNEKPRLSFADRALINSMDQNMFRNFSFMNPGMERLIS
Answers are plain numbers, in %.

- Compound: "COc1cc2c(cc1Nc1nc(N3CCc4ccccc43)c3cc[nH]c3n1)N(C(=O)CN(C)C)CC2"
  Recorded measurement: 1.03
- Compound: "COc1cc2ncn(-c3cc(O[C@@H](C)c4ccccc4Cl)c(C(N)=O)s3)c2cc1OC"
  Recorded measurement: 2.16
- Compound: "NC(=O)c1ccc(-c2nc(-c3ccccn3)c(-c3ccc4c(c3)OCO4)[nH]2)cc1"
  Recorded measurement: 0.77
- Compound: "COC(=O)Nc1nc2cc(Oc3cccc(NC(=O)Nc4cc(C(F)(F)F)ccc4F)c3)ccc2[nH]1"
  Recorded measurement: -0.27

Could I get inhibition for every one of these entries?
1. COc1cc2ncn(-c3cc(OCc4ccccc4Cl)c(C(N)=O)s3)c2cc1OC
2. CC1=C(C(=O)Nc2ccc3[nH]ncc3c2)C(c2ccc(F)cc2)NC(=O)N1 (stereo not given)

[-0.26, 1.63]

Would you mind giving inhibition for every compound in the list below?
1. O=C1NC(=O)C(c2ccccc2Cl)=C1Nc1cccc(O)c1
2. NC(=O)c1cccc(Nc2nccc(Nc3cccc4[nH]ncc34)n2)c1
3. c1cnn2ncc(-c3ccnc(Nc4ccc5c(c4)OCCO5)n3)c2c1
4. COc1ccc(-c2nn3ncccc3c2-c2ccnc(Nc3ccc(Cl)c(C(F)(F)F)c3)n2)cc1
5. Cc1nnc(-c2ccc(C)c(-c3ccc(C(=O)Nc4cccc(C#N)c4)cc3)c2)o1
6. O=C1NC(=O)C(N2CCc3ccccc32)=C1c1ccc(Cl)cc1

1. 1.38
2. 0.02
3. 2.63
4. 1.56
5. 1
6. 2.06

----------
molecular target: Dual specificity protein kinase TTK (Homo sapiens) (UniProt P33981); conditions: at 0.1 µM
Sequence (P33981 whole entry): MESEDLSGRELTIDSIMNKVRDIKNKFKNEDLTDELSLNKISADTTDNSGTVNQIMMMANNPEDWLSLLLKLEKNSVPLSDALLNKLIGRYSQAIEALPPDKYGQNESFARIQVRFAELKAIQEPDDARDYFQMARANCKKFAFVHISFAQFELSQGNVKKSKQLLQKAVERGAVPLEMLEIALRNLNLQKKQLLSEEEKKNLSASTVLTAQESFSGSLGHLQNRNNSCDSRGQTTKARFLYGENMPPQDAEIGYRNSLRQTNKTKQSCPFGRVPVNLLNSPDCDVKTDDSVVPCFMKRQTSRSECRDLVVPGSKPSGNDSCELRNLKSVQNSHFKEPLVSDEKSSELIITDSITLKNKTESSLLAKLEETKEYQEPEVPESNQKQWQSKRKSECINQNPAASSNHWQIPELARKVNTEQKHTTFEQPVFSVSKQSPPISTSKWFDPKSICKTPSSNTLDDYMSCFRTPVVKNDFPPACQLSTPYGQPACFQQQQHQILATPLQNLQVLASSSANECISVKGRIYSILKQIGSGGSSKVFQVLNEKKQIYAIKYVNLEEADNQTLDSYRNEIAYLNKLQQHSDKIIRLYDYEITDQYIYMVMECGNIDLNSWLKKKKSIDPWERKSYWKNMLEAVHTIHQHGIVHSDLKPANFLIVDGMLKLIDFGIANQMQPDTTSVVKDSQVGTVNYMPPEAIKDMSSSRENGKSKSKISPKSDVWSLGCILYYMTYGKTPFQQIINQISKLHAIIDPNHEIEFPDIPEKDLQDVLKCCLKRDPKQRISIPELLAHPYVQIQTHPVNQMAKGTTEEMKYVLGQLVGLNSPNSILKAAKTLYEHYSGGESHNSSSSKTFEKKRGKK
Description: GSK_PKIS: TTK mean inhibition at 0.1 uM [Nanosyn]
What inhibition was measured for each of the following?
Give bare numbers, in %.

- Structure as smiles: "Cc1nnc(-c2ccc(C)c(-c3ccc(C(=O)Nc4cccc(C#N)c4)cc3)c2)o1"
  Recorded measurement: 3.88
- Structure as smiles: "O=C1NC(=O)C(c2ccccc2Cl)=C1Nc1cccc(O)c1"
  Recorded measurement: 2.7
- Structure as smiles: "CCc1cccc(NC(=O)Nc2ccc(Oc3ccc4nc(NC(=O)OC)[nH]c4c3)cc2)c1"
  Recorded measurement: 6.8
- Structure as smiles: "COc1cc2c(cc1Nc1nc(N3CCc4ccccc43)c3cc[nH]c3n1)N(C(=O)CN(C)C)CC2"
  Recorded measurement: 7.66
- Structure as smiles: "NC(=O)c1ccc(-c2nc(-c3ccccn3)c(-c3ccc4c(c3)OCO4)[nH]2)cc1"
  Recorded measurement: 6.47

Quick one: give me inhibition for each item below, same order please.
1. COc1ccc(-c2nn3ncccc3c2-c2ccnc(Nc3ccc(Cl)c(C(F)(F)F)c3)n2)cc1
2. COc1cc2ncn(-c3cc(O[C@@H](C)c4ccccc4Cl)c(C(N)=O)s3)c2cc1OC

[5.35, 6.36]

----------
biological target: Tyrosine-protein kinase Yes (Homo sapiens) (UniProt P07947); details: at 0.1 µM;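 note: mean inhibition of YES, from the GSK PKIS dataset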
Sequence (P07947 2-543 limits assumed): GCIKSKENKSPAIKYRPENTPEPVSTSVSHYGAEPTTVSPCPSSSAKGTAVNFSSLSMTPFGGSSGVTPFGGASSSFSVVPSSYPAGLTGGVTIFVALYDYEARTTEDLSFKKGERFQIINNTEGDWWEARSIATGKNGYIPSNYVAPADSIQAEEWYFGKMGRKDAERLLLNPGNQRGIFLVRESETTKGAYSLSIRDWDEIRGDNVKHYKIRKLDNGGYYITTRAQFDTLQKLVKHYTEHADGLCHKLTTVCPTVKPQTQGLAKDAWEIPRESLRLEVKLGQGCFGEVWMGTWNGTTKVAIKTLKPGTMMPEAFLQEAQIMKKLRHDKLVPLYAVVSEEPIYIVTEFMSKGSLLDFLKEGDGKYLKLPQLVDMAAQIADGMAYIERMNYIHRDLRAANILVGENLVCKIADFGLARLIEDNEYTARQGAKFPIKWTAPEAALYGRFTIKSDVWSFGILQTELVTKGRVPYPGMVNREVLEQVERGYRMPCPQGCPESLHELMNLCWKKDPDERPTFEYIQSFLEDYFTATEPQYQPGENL
Readout label: inhibition (%)
Numbers only, in %.

Batch lookup, inhibition per entry.
1. Fc1cccc(COc2ccc(Nc3ncnc4cc(-c5ccc[nH]5)sc34)cc2Cl)c1
2. Nc1ncnc2occ(-c3ccc(NC(=O)Nc4cc(C(F)(F)F)cc(C(F)(F)F)c4)cc3)c12
3. Cc1ccc(C(=O)NC2CCCCC2)cc1-c1ccc(C(=O)NCC2CC2)cc1
4. CCN1CCC(CC(=O)Nc2n[nH]c3nc(-c4cccs4)c(Br)cc23)CC1
5. NS(=O)(=O)c1cccc(-c2ccc3c(NC(=O)C4CC4)n[nH]c3c2)c1

[2.17, 1.45, 1.31, -2.01, -2.48]

For every item in the list below, what is its measured inhibition?
1. O=C(Nc1n[nH]c2nc(-c3ccco3)c(Br)cc12)C1CC1
2. Cc1cccc(-c2n[nH]cc2-c2ccc3ncccc3n2)n1
3. COC(=O)Nc1nc2cc(Oc3ccc(NC(=O)Nc4cccc(C(=O)O)c4)cc3)ccc2[nH]1
4. CC(C)=Cc1cccc2c1/C(=N/Nc1ccc(S(N)(=O)=O)cc1)C(=O)N2
5. COc1cc2ncn(-c3cc(OCc4ccccc4C(F)(F)F)c(C(N)=O)s3)c2cc1OC

1. 4.26
2. 1.95
3. 0
4. 2.28
5. 1.77

----------
Assign inhibition to each entry below.
Molecular target: Interleukin-1 receptor-associated kinase 4 (Homo sapiens);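 note: reported figure is the mean inhibition of IRAK4 activity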
Sequence (whole entry): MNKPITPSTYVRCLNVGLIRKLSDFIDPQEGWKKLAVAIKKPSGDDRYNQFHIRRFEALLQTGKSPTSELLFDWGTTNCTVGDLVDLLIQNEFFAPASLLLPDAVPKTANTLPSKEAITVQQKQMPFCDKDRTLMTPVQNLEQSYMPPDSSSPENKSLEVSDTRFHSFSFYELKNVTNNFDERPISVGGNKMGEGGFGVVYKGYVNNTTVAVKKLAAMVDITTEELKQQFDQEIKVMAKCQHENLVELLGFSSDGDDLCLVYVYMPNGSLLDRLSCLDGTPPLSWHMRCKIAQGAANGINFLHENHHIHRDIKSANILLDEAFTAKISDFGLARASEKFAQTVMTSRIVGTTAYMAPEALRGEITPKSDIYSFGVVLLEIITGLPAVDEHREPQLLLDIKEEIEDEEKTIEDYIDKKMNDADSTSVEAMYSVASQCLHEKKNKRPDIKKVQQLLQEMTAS
Details: at 0.1 µM
Give bare numbers, in %.

Worked cases, answers included:
- Compound: "CS(=O)(=O)CCNCc1ccc(-c2ccc3ncnc(Nc4ccc(OCc5ccccc5)c(Cl)c4)c3c2)o1"
  inhibition, %: 0.4
- Compound: "Cn1cc(C=C2C(=O)Nc3cccnc32)c2ccccc21"
  inhibition, %: 6.41
- Compound: "O=C1NC(=O)C(c2ccc(Cl)cc2)=C1Nc1ccc(Cl)c(C(=O)O)c1"
  inhibition, %: -1.49
- Compound: "Nc1nc(-c2ccccn2)c(-c2ccc3ncccc3n2)s1"
  inhibition, %: -3.29
- Compound: "CC1=C(C(=O)Nc2ccc3[nH]ncc3c2)C(c2ccc(Cl)c(Cl)c2)CC(=O)N1 (configuration not stated)"
  inhibition, %: -3.53

State recorded inhibition for all listed compounds.
1. COc1cc(C=NNc2ncnc3c2cnn3-c2ccccc2)ccc1O
2. COc1cc2ncn(-c3cc(OCc4ccccc4Cl)c(C(N)=O)s3)c2cc1OC

[-2.02, 2.64]

----------
molecular target: Insulin-like growth factor 1 receptor (Homo sapiens) (UniProt P08069); conditions: at 0.1 µM;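 note: values are mean percent inhibition of IGF1R kinase activity, from the GSK published kinase inhibitor set (PKIS) screening panel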
Sequence (P08069 31-736 limits assumed): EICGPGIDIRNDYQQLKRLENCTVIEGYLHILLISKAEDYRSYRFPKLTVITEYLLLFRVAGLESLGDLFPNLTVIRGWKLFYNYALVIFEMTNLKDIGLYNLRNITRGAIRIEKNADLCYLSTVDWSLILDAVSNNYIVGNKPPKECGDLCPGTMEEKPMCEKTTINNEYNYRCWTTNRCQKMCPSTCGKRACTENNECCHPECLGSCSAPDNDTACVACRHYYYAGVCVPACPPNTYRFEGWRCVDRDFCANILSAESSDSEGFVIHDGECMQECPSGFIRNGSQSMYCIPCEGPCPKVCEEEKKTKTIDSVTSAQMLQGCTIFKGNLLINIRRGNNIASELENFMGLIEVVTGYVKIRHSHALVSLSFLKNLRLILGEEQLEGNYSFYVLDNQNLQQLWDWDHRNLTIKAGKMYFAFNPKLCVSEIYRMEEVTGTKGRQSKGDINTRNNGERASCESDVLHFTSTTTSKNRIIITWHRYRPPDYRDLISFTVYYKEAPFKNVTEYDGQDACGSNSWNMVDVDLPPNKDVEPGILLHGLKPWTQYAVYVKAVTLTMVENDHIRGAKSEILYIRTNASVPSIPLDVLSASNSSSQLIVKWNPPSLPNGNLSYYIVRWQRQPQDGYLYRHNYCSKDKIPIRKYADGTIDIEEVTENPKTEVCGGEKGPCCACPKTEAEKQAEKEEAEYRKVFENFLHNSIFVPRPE
Sequence (P08069 741-1367 limits assumed): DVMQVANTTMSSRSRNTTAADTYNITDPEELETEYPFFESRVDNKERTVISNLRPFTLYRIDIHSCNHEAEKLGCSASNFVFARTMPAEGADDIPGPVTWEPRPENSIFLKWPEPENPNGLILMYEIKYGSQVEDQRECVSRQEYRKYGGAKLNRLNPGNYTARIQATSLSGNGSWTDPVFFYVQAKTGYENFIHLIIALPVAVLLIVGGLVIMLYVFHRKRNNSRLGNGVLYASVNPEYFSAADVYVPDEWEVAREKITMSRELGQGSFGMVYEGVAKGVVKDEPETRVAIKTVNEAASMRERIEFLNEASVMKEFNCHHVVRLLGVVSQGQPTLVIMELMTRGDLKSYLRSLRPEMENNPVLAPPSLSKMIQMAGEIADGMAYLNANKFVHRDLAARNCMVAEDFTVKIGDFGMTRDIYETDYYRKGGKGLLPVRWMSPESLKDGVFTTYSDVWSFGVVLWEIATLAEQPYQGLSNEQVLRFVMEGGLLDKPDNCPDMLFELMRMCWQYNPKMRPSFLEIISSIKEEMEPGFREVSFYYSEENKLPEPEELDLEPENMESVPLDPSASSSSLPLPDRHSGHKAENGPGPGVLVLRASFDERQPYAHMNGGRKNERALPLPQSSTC
Readout label: inhibition (%)
One number for each entry, in %.

Some molecules with known inhibition results, for comparison:
- Structure as smiles: "O=C1NC(=O)C(N2CCc3ccccc32)=C1c1ccc(Cl)cc1"
  Unit info: "%"
  inhibition: 2.02
- Structure as smiles: "CS(=O)(=O)CCNCc1nc(-c2ccc3ncnc(Nc4ccc(F)c(Cl)c4)c3c2)cs1"
  Unit info: "%"
  inhibition: 3.27

I would be grateful if you could provide inhibition for each of the following entries.
1. O=C1NC(=O)C(c2cccc(Cl)c2)=C1Nc1ccc(O)c(Cl)c1
2. COc1cc2ncn(-c3cc(O[C@@H](C)c4ccccc4Cl)c(C(N)=O)s3)c2cc1OC
3. CS(=O)(=O)CCNCc1ccc(-c2ccc3ncnc(Nc4ccc(OCc5ccccc5)c(Cl)c4)c3c2)o1
4. Cn1cc(C=C2C(=O)Nc3cccnc32)c2ccccc21

[-1.68, -0.08, 5.19, 1.72]

----------
I'd be grateful if you could share measured inhibition for these entries.
Molecular target: Tyrosine-protein kinase Mer (Homo sapiens);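 note: reported value is a mean inhibition of MER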
Sequence (whole entry): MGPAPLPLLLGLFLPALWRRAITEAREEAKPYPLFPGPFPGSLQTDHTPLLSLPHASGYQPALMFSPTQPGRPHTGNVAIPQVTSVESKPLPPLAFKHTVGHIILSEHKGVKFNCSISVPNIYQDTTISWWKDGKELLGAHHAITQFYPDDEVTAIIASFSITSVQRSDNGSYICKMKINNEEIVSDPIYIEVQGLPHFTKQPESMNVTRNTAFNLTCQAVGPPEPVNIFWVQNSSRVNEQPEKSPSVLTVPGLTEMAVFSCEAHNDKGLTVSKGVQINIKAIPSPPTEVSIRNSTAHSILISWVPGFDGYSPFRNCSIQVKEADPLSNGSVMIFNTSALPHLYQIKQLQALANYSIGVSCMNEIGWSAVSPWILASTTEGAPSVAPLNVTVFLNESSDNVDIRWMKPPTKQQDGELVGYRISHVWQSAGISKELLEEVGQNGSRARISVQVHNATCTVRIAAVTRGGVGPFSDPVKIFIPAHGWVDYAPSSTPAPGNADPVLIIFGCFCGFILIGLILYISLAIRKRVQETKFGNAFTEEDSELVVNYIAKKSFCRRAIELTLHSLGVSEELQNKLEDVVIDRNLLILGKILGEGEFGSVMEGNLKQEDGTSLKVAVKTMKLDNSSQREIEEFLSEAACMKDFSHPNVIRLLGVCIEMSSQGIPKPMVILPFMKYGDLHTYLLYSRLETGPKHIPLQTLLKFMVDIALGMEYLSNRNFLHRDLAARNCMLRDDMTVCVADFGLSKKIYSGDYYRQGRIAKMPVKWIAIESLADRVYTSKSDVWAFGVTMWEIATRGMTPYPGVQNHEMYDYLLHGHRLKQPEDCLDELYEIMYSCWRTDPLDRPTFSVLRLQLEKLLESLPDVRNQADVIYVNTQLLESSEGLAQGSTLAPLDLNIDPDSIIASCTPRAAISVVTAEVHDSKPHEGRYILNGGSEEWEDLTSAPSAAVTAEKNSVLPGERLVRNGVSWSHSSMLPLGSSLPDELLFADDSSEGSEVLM
Settings: at 0.1 µM
Give bare numbers, in %.

- Molecule: "COc1cc(C=NNc2ncnc3c2cnn3-c2ccccc2)ccc1O"
  Target system: "Tyrosine-protein kinase Mer (Homo sapiens)"
  Recorded measurement: 6.78

Would you be so kind as to report inhibition for each listed record?
1. Nc1nc(-c2ccccn2)c(-c2ccc3ncccc3n2)s1
2. CC1=C(C(=O)Nc2ccc3[nH]ncc3c2)C(c2ccc(Cl)c(Cl)c2)CC(=O)N1 (centres undefined)
3. COC(=O)Nc1nc2cc(Oc3ccc(NC(=O)Nc4cccc(C(=O)O)c4)cc3)ccc2[nH]1

1: 0.73; 2: 0.79; 3: 0.61
